assay: Mouse Pharmacokinetic Study (Example 1C); assay type: in vivo; settings: mouse; CD-1 mice, iv, 3 mg/kg; plasma
property.label: AUC(0-inf) (ng·h/mL)

Completed entries (count: 4):
compound: Cc1cnn2c(N[C@H]3CCc4[nH]ccc4C3)nc(-c3cncc(F)c3)nc12 [I-259a]
units.symbol: ng·h/mL
AUC(0-inf): 842
//
compound: CN(C)c1cnn2c(NCCc3c[nH]c4ccccc34)cc(-c3cncc(F)c3)nc12 [I-203]
units.symbol: ng·h/mL
AUC(0-inf): 565
//
compound: O=C(c1cnn2c(NCCc3c[nH]c4ccccc34)cc(-c3cncc(F)c3)nc12)N1CCOCC1 [I-65]
units.symbol: ng·h/mL
AUC(0-inf): 537
//
compound: C[C@@H](O)c1cnn2c(NCCc3c[nH]c4ccccc34)cc(-c3cncc(F)c3)nc12 [I-222a]
units.symbol: ng·h/mL
AUC(0-inf): 1330

[1] CC(C)c1cnn2c(N[C@@H]3CCc4[nH]ccc4C3)nc(-c3cncc(F)c3)nc12 [I-137b]
[2] Cc1cnn2c(N[C@H]3Cc4ccc(O)cc4C3)cc(-c3cncc(F)c3)nc12 [I-219]
[3] CN(C)c1cnn2c(N[C@H]3Cc4ccc(O)cc4C3)cc(-c3cncc(F)c3)nc12 [I-204b]
Rank the 3 compounds: largest AUC(0-inf) first, smallest last. Write the labels out in the order the request specifies.
1, 2, 3

====

Biological target: AHR (UniProt P35869)
Construct: IC50
Sequence (P35869 1-848): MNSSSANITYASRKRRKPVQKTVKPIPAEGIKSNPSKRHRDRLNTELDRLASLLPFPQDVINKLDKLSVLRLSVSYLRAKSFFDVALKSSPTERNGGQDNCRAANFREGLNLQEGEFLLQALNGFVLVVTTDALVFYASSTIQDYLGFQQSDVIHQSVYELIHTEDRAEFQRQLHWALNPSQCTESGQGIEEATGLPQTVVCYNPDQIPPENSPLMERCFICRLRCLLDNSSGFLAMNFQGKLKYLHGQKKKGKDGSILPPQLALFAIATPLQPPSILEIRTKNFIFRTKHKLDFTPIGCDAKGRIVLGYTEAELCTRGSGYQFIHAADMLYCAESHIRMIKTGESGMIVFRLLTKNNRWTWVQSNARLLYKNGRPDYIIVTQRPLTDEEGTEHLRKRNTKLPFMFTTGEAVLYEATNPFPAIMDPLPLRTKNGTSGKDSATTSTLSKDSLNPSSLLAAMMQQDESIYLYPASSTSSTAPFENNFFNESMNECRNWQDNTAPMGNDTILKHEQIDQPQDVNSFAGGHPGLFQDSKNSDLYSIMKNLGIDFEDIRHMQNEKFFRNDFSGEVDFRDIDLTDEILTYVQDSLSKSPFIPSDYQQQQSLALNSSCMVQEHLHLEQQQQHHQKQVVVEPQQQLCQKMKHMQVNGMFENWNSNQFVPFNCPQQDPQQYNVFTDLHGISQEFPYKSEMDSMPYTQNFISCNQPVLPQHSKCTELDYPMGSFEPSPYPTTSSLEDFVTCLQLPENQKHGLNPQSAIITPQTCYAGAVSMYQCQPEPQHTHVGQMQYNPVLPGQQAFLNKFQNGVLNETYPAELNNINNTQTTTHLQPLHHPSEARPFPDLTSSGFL
Test: DRE-Luciferase Reporter Assay (Example 1A)
Format: cell-based, murine or human
Conditions: cell line and AHR activating ligand not specified
Experimental: AHR binds to Dioxin Responsive Elements (DRE) upstream of genes that it activates. One measure of AHR activity is activation of a reporter gene, such as luciferase, downstream of one or multiple DRE elements. […] Cells were incubated for 4, 15 or 24 hours or another time point and then lysed for determination of luciferase activity as a read-out of the AHR activation or inhibition. […] IC50 values were determined as the concentration which inhibits half of the luciferase activity.
property.label: IC50

# annotated cases, reported IC50 shown
structure.smiles.string: CC(C)n1cnc2c(NCCc3c[nH]c4cnccc34)nc(-c3cncc(F)c3)nc21
IC50: 1 to 1.5 µM
//
structure.smiles.string: CC(C)c1cnn2c(NCCc3c[nH]c4ccccc34)cc(-c3cncc(F)c3)nc12
IC50: < 0.5 µM

Consider CC(C)c1csc2c(NCCc3c[nH]c4ccccc34)nc(-c3cncc(F)c3)nc12 . Its measured IC50 is 1 to 1.5 µM

Summary for this molecule, CC(C)n1ccc2c(NCCc3c[nH]c4ccccc34)nc(-c3cncc(F)c3)nc21 : IC50 is < 0.5 µM
